Kindly supply the reported viscosity values for the records listed here.
assay: xn = mol fraction of the nth substance listed; conditions: 308.15 K; 100 kPa; Liquid; Cone and plate viscometry; x1 = 0.9
Give bare numbers, in mPa·s.

>>> readout_value("CCCCCCn1cc[n+](C)c1.O=[N+]([O-])c1cn[n-]c1 [1-hexyl-3-methylimidazolium 4-nitropyrazolide] + CCCCCCCCCCCCCC[P+](CCCCCC)(CCCCCC)CCCCCC.O=S(=O)([N-]S(=O)(=O)C(F)(F)F)C(F)(F)F")
200

Each molecule below has a recorded value; state its viscosity.
1. CCCCCCn1cc[n+](C)c1.O=[N+]([O-])c1cn[n-]c1 [1-hexyl-3-methylimidazolium 4-nitropyrazolide] + CCCCCCCC[P+](CC)(CC)CC.O=S(=O)([N-]S(=O)(=O)C(F)(F)F)C(F)(F)F
2. CCCCCCCC[P+](CC)(CC)CC.O=[N+]([O-])c1cn[n-]c1 [triethyloctylphosphonium 4-nitropyrazolide] + CCCCCCn1cc[n+](C)c1C.O=S(=O)([N-]S(=O)(=O)C(F)(F)F)C(F)(F)F

Result:
[164, 156]

Each molecule below has a recorded value; state its viscosity.
1. CCCCCCn1cc[n+](C)c1.N#Cc1ccc[n-]1 [1-hexyl-3-methylimidazolium 2-cyanopyrrolide] + CCCCCCCCCCCCCC[P+](CCCCCC)(CCCCCC)CCCCCC.O=S(=O)([N-]S(=O)(=O)C(F)(F)F)C(F)(F)F
2. CCCCCCCCCC[P+](CC)(CC)CC.O=[N+]([O-])c1cn[n-]c1 [decyltriethylphosphonium 4-nitropyrazolide] + CC[P+](CC)(CC)COCCOC.O=S(=O)([N-]S(=O)(=O)C(F)(F)F)C(F)(F)F

Result:
1. 135
2. 149
